What normalized growth was measured for each of the following?
# Run description: chemical genetic growth profiling, strain panel (AID 1159580);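 note: tested at 20 µM; growth read once vehicle control cultures reached saturation at 30 °C; 1 = growth at the plate median or of vehicle wells; lower values mean less growth of the strain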
# Measurement context: S. cerevisiae deletion strains, growth OD, locus YOR061W, strain CKA2, active compounds read low
In all, about 5,500 compounds went through this assay and about 2,000 (36%) were called active. About 18% were inconclusive and are not listed. Some of the results follow.
The reply should be a number, written without any unit.

Input: Returns the measured normalized growth for the input compound. Input: CC1(C)CC2C1(O)CCC1(C)C=CC(O)C21CO (stereo not drawn)
Output: 0.997

Input: Entry "O=C(O)CF" has what normalized growth?
Output: 0.975

Input: Fill in the blank: the reported normalized growth of "COC(C)(C)CCC[C@H](C)C/C=C/C(C)=C/C(=O)OC(C)C" is ____.
Output: 1.01

Input: Item CCCC1O[C@@H]2CC3C4CCC5=CC(=O)C=CC5(C)C4[C@@H](O)CC3(C)[C@]2(C(=O)CO)O1 (stereo partly drawn) has what recorded normalized growth?
Output: 1

Input: Form field: reported normalized growth of "N#CC(C#N)=C/C=C(/Sc1ccc(F)c(Cl)c1)c1ccc(Cl)cc1"
Output: 0.827

Input: Quick one: normalized growth for "Cc1nn(Cc2ccc(C(=O)Sc3ccc(C(F)(F)F)cn3)o2)c(C)c1Br" ?
Output: 0.816

Input: Given the entry "CC(C)N(C(=O)SCC(Cl)=C(Cl)Cl)C(C)C" , report its measured normalized growth.
Output: 1.02

Input: For the compound CC(C)=CCC[C@](C)(O)C1CC=C(C)CC1 (stereo partly drawn) , what normalized growth is on record?
Output: 1.03

---

# Run description: chemical genetic growth profiling, strain panel (AID 1159580);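 note: tested at 20 µM; growth read once vehicle control cultures reached saturation at 30 °C; 1 = growth at the plate median or of vehicle wells; lower values mean less growth of the strain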
# Measurement context: S. cerevisiae deletion strains, growth OD, locus YDR150W, strain NUM1, active compounds read low
In all, about 5,500 compounds went through this assay and about 2,000 (36%) were called active. Another 18% or so got no clear call; they are omitted. Some of the results follow.
Provide the reported normalized growth of each item.
Give only the figure.

Input: Look up normalized growth for this compound: "CC(C)N(Cc1ccc(N(C)C)cc1)S(=O)(=O)c1cc(Cl)c(Cl)cc1Cl"
Output: 1.01

Input: Data request, read-out normalized growth, for "Fc1cccc(Cl)c1CSc1nncn1-c1ccc(OCc2ccccc2)cc1"
Output: 0.909

Input: # input compound: "COC(=O)c1ccc(-c2ccc(Cl)cc2)s1" ; wanted: its normalized growth
Output: 0.893

Input: Endpoint output: normalized growth of "OC[C@@H](O)[C@@H](O[C@@H]1O[C@H](CO)[C@@H](O)[C@H](O)[C@H]1O)[C@H](O)[C@@H](O)CO" . Value?
Output: 0.998

Input: Could you share which normalized growth value was measured for "N[C@@H](CCC(=O)N[C@H](CSN=O)C(=O)NCC(=O)O)C(=O)O" ?
Output: 1

Input: Value lookup for normalized growth; key = CC1C(c2ccccc2)OCCN1CN1C(=O)c2ccccc2C1=O (stereo unspecified)
Output: 0.99

Input: Consider the compound "Cc1ccc(/C(=C\CN2CCCC2)c2ccccn2)cc1" and give its measured normalized growth.
Output: 1.02

Input: What does the data say about its normalized growth? Entry: CCCC(C)C1(CC)C(=O)N=C(S)NC1=O (stereo unspecified)
Output: 1.02

Input: normalized growth lookup needed for "CSC(N)=NCCC[C@H](N)C(=O)O" , thanks.
Output: 1.02

Input: Fill in: normalized growth of "O=C(Nc1ccc(C(F)(F)F)cc1)Nc1ccccc1C(=O)O" is ___
Output: 0.972

Input: Quick one: normalized growth of "CCSc1sc(C(=O)OC)c(-c2ccc(Cl)cc2)c1C#N" ?
Output: 1.06
